SYSTEM_TESTED: Neuropeptide Y receptor type 2 (Homo sapiens)
MEASUREMENT_DESCRIPTION: blockers of human neuropeptide Y Y2 receptor – cell-based, primary screen (AID 793);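 note: 0% = vehicle with agonist challenge and 100% = reference antagonist with challenge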
COND: NPY-Y2 expressing cells, antagonist mode; at 2.7 µM; active compounds read high
In all, about 140,000 compounds went through this assay and about 1,400 (1%) were called active. What follows is part of a selection rich in actives, with near analogues and random picks from the rest.
MEASURED_ATTRIBUTE: inhibition (%)
Report as a plain number; the unit % is understood.

COMPOUND	inhibition (%)
O=C(/C=C/c1cnc2ccccc2n1)NC1CCCCCC1	5.1
O=C(Oc1ccccc1)Oc1ccc2c(c1)oc(=O)c1ccccc12	23.1
O=C(NC1CC1)c1cccc(Br)c1	1.02
CC1CCN(C(=O)c2ccc(S(=O)(=O)Cc3cc(F)ccc3F)c([N+](=O)[O-])c2)CC1	-1.09

Request: inhibition, test system Neuropeptide Y receptor type 2 (Homo sapiens), entry Cc1ccc(S(=O)(=O)N(Cc2ccc(Cl)cc2)c2ccccc2C(=O)NCc2cccnc2)cc1 35

// map Cc1ccc2[nH]cc(CCNC(=O)c3ccc([N+](=O)[O-])cc3)c2c1 to recorded inhibition (system: Neuropeptide Y receptor type 2 (Homo sapiens)) -0.38

====

SYSTEM_TESTED: Neuropeptide Y receptor type 2 (Homo sapiens)
MEASUREMENT_DESCRIPTION: blockers of human neuropeptide Y Y2 receptor – cell-based, primary screen (AID 793);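 note: 0% = vehicle with agonist challenge and 100% = reference antagonist with challenge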
COND: NPY-Y2 expressing cells, antagonist mode; at 2.7 µM; active compounds read high
Out of some 140,000 compounds screened, about 1,400 (1%) were called active. Shown is part of a subset that was picked to be rich in actives.
Some compounds, each annotated with its measured inhibition.
Dear colleague, please return just the value in %, with no unit written.

Consider the reported inhibition for these compounds:
COMPOUND	inhibition, %
COc1ccc(/C=N/NC(=O)c2ccccc2)cc1OS(=O)(=O)c1ccccc1	0.26
COc1ccc2c(c1)C(C)=CC(C)(C)N2C(=O)CNCc1ccc2c(c1)OCO2	26.6

// below: inhibition requested for another compound
# inhibition lookup, item CCn1cc(CNC(=O)c2cc([N+](=O)[O-])c(C)c([N+](=O)[O-])c2)cn1 2.2

====

SYSTEM_TESTED: Neuropeptide Y receptor type 2 (Homo sapiens) (UniProt P49146)
Sequence (P49146 whole entry, looked up): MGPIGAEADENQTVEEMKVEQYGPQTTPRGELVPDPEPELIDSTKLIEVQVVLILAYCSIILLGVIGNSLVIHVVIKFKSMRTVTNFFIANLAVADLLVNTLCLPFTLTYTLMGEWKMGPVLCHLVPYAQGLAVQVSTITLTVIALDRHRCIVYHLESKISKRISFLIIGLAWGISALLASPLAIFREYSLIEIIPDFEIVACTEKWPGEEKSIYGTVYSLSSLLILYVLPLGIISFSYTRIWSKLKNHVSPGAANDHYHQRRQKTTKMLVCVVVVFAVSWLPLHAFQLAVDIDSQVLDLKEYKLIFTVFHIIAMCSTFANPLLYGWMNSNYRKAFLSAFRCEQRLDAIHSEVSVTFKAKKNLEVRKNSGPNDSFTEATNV
MEASUREMENT_DESCRIPTION: blockers of human neuropeptide Y Y2 receptor – cell-based, primary screen (AID 793);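 note: 0% = vehicle with agonist challenge and 100% = reference antagonist with challenge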
COND: NPY-Y2 expressing cells, antagonist mode; at 2.7 µM; active compounds read high
Hit rate of the full screen: of about 140,000 compounds, about 1,400 (1%) were called active. The full list was thinned out, with actives kept by preference.
# maps each entry to its inhibition
// note: answer is a bare numeric in %

Recorded inhibition, per entry:
COMPOUND	SYSTEM_TESTED	inhibition (%)
Nc1nc(SCc2ccc([N+](=O)[O-])cc2)c2ncn(C3OC(CO)C(O)C3O)c2n1 (stereo not drawn)	Neuropeptide Y receptor type 2 (Homo sapiens) (UniProt P49146)	1.64
OCCCN1c2ccccc2Nc2nnc(-c3ccccc3)cc21	Neuropeptide Y receptor type 2 (Homo sapiens) (UniProt P49146)	3.77
COc1ccc(S(=O)(=O)NC(C)C)cc1C(=O)NC1CCCCC1	Neuropeptide Y receptor type 2 (Homo sapiens) (UniProt P49146)	5.96

Given the compound Brc1ccc(-c2csc(N/N=C/c3ccc4c(c3)OCO4)n2)cc1 , what is its reported inhibition? -1.38

Param item = Cc1nn2c3ccccc3nc2n(C)c1=O ; retrieve measured inhibition. 10.8

Look up inhibition: O=S(=O)(O)c1nc2ccccc2n1Cc1ccc(Cl)cc1 3

If you can, please state the reported inhibition value of O=C(Nc1nnc(SCc2c(Cl)cccc2Cl)s1)C1CCCO1 (stereo not drawn) . 22.4

Suppose we examine the compound Cc1ccc(Cn2c(NC(=O)c3ccco3)nc3ccccc32)cc1 ; what inhibition value has been reported? 15.8

Returns the measured inhibition for the input compound. Input: O=C(Nc1nnc(SCc2ccc(Cl)cc2Cl)s1)C1COc2ccccc2O1 (stereo not drawn) -1.05
